- Test details: Solubility over time of rifaximin preparations in phosphate buffer pH 6.8
- Type: physicochemical
- Condition set: phosphate buffer, 30 °C, pH 6.8, aqueous buffer, thermodynamic from solid, 45 min; phosphate buffer pH 6.8, 30±0.5° C.; read-out: Solubility over time, Concentration
Property: solubility at 45 min (µg/mL)
Number in µg/mL, nothing else.

Q: // query solubility at 45 min value for entry CO[C@H]1/C=C/O[C@@]2(C)Oc3c(C)c(O)c4c(O)c(c5c(nc6cc(C)ccn65)c4c3C2=O)NC(=O)/C(C)=C\C=C\[C@H](C)[C@H](O)[C@@H](C)[C@@H](O)[C@@H](C)[C@H](OC(C)=O)[C@@H]1C
Result: 14.9

* * *

- Test details: Solubility over time of rifaximin preparations in phosphate buffer pH 6.8
- Type: physicochemical
- Condition set: phosphate buffer, 30 °C, pH 6.8, aqueous buffer, thermodynamic from solid, 60 min; phosphate buffer pH 6.8, 30±0.5° C.; read-out: Solubility over time, Concentration
Property: solubility at 60 min (µg/mL)
Output spec: scalar in µg/mL, unitless text.

Q: Any idea what its solubility at 60 min is? The compound is CO[C@H]1/C=C/O[C@@]2(C)Oc3c(C)c(O)c4c(O)c(c5c(nc6cc(C)ccn65)c4c3C2=O)NC(=O)/C(C)=C\C=C\[C@H](C)[C@H](O)[C@@H](C)[C@@H](O)[C@@H](C)[C@H](OC(C)=O)[C@@H]1C [rifaximin by milling, rifaximin, reference compound]
Result: 12.9

* * *

- Test details: Solubility over time of rifaximin preparations in phosphate buffer pH 6.8
- Assay type: physicochemical
- Condition set: phosphate buffer, 30 °C, pH 6.8, aqueous buffer, thermodynamic from solid, 40 min; phosphate buffer pH 6.8, 30±0.5° C.; read-out: Solubility over time, Concentration
- Protocol: Samples taken at 5-minute intervals during the first hour and at 15-minute intervals in the remaining time, are analysed in HPLC after filtration.
Property: solubility at 40 min (µg/mL)
Supply the numeric figure in µg/mL, leaving out any unit text.

Q: Param item = CO[C@H]1/C=C/O[C@@]2(C)Oc3c(C)c(O)c4c(O)c(c5c(nc6cc(C)ccn65)c4c3C2=O)NC(=O)/C(C)=C\C=C\[C@H](C)[C@H](O)[C@@H](C)[C@@H](O)[C@@H](C)[C@H](OC(C)=O)[C@@H]1C [Example 1, rifaximin] ; retrieve measured solubility at 40 min.
Result: 17.7

* * *

- Test details: Solubility over time of rifaximin preparations in phosphate buffer pH 6.8
- Type: physicochemical
- Condition set: phosphate buffer, 30 °C, pH 6.8, aqueous buffer, thermodynamic from solid, 55 min; phosphate buffer pH 6.8, 30±0.5° C.; read-out: Solubility over time, Concentration
- Procedure: Samples taken at 5-minute intervals during the first hour and at 15-minute intervals in the remaining time, are analysed in HPLC after filtration.
Property: solubility at 55 min (µg/mL)
# output: bare number, implied unit µg/mL

Q: What does the data say about its solubility at 55 min? Entry: CO[C@H]1/C=C/O[C@@]2(C)Oc3c(C)c(O)c4c(O)c(c5c(nc6cc(C)ccn65)c4c3C2=O)NC(=O)/C(C)=C\C=C\[C@H](C)[C@H](O)[C@@H](C)[C@@H](O)[C@@H](C)[C@H](OC(C)=O)[C@@H]1C
Result: 11.8

* * *

- Test details: Rifaximin solubility at different pH, shake flask method
- Format: physicochemical
- Condition set: aqueous buffer, thermodynamic from solid; pH 10 buffer solution, shake flask, 20° C.
- Experimental: The study was conducted in accordance with accepted principles in order to meet the requirements of the Annex to European Commission Directive 92/69/EEC and the OECD Guidelines for Testing of Chemicals (EEC Method A6, OECD Method 105). […] Aliquots of the saturated solutions of rifaximin-α were adequately diluted, then analyzed by a high performance liquid chromatography (HPLC) method.
Property: solubility (µg/mL)
API: value field is a number in µg/mL; no unit string.

Q: Returns the measured solubility for the input molecule. Input: CO[C@H]1/C=C/O[C@@]2(C)Oc3c(C)c(O)c4c(O)c(c5c(nc6cc(C)ccn65)c4c3C2=O)NC(=O)/C(C)=C\C=C\[C@H](C)[C@H](O)[C@@H](C)[C@@H](O)[C@@H](C)[C@H](OC(C)=O)[C@@H]1C
Result: 299
